The entries below are paired with their reported growth inhibition.
# assay protocol: NCI Yeast Anticancer Drug Screen. Data for the rad50EPP+ strain (AID 151);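 also: 0% = growth of vehicle-treated control cultures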
# assay context: S. cerevisiae rad50 mutant strain, at 100.0 µM, hits give high values
About 79,000 compounds went through this panel and 15% of them were active in at least one assay; those are over-represented in the sample as a whole.
measure: growth inhibition (%)

> print(dat)
                                    compound            measure  unit.tag  result.value
 1             NNC(=O)CCc1ccc2ccc3ccccc3c2c1  growth inhibition         %            58
 2  CC1(C)C(=O)OC(n2cc(F)c(=O)[nH]c2=O)C1=O (stereo not drawn)  growth inhibition         %            56
 3                  CC(=O)OCc1ccc(O)c(C=O)c1  growth inhibition         %            60
 4         O=C(Nc1ccccc1)OCCc1ccc(Cl)c(Cl)c1  growth inhibition         %            30
 5  O=[N+]([O-])c1cccc2nc3ccccc3c(NCCCN3CCOCC3)c12  growth inhibition         %            96
 6  CCc1ccc(NS(=O)(=O)c2ccccc2)c([N+](=O)[O-])c1  growth inhibition         %            75
 7  CC(/C=C/c1ccc2c(c1)OCO2)[N+](=O)[O-] (stereo not drawn)  growth inhibition         %            99
 8              CC1=C(SCCO)C(=O)c2ccccc2C1=O  growth inhibition         %            71
 9              O=C(O)c1ccccc1NC(=S)c1ccccc1  growth inhibition         %            83
10                     CCC(=O)c1cccc2ccccc12  growth inhibition         %            86
11  Cc1c(C(=O)C(=O)c2ccccc2)c(C)c(C(=O)C(=O)c2ccccc2)c(C)c1C(=O)C(=O)c1ccccc1  growth inhibition         %           -17
12  COc1cc(C2c3cc4c(cc3OC(Nc3ccccc3)C2C)OCO4)cc(OC)c1O (stereo not drawn)  growth inhibition         %             0
13           O=[N+]([O-])/C=C/c1ccc2ccccc2c1  growth inhibition         %            99
14  N/C(=N\OC(=O)NC(Cl)=C(Cl)Cl)c1cc(C(F)(F)F)cc(C(F)(F)F)c1  growth inhibition         %            17
15  CCCCOC(=O)N[C@H]1CCc2cc(OC)c(OC)c(OC)c2-c2ccc(SC)c(=O)cc21  growth inhibition         %           -11
16            CC1CCN(CCC(=O)c2ccc(Cl)cc2)CC1  growth inhibition         %            -7
17  NC1=NS(=O)(=O)N=C(N)C1=Cc1ccc([N+](=O)[O-])o1  growth inhibition         %            97
18  CC[C@@]1(O)C(=O)OCc2c1cc1n(c2=O)Cc2cc3c(N)cccc3nc2-1  growth inhibition         %            52
19  CCN(CC)CCN1C(=O)c2cccc3cc(OC)cc(c23)C1=O  growth inhibition         %            93
20  O=C(Nc1ccccc1)C(=O)C(C(=O)c1ccccc1)C(c1ccccc1)c1ccccc1 (stereo not drawn)  growth inhibition         %            -1
21  CCCCCCCCCCCCCCCCCCOCC(O)COP(=O)(O)OCC1OC(n2cc(F)c(=O)[nH]c2=O)CC1O (stereo not drawn)  growth inhibition         %            89
22  Cc1ccc(C2C(Cl)C(=O)N2n2cnc3ccccc3c2=O)cc1 (stereo not drawn)  growth inhibition         %            51
23        CC(=O)OCCOCNC(=S)N/N=C(\C)c1cnccn1  growth inhibition         %            -4
